FYI, the data here is from patent US20250170267A1.

Catalogue of IC50 readings, one per entry.
# subject_of_test: human topoisomerase I (Homo sapiens)
# Sequence (P11387 1-765): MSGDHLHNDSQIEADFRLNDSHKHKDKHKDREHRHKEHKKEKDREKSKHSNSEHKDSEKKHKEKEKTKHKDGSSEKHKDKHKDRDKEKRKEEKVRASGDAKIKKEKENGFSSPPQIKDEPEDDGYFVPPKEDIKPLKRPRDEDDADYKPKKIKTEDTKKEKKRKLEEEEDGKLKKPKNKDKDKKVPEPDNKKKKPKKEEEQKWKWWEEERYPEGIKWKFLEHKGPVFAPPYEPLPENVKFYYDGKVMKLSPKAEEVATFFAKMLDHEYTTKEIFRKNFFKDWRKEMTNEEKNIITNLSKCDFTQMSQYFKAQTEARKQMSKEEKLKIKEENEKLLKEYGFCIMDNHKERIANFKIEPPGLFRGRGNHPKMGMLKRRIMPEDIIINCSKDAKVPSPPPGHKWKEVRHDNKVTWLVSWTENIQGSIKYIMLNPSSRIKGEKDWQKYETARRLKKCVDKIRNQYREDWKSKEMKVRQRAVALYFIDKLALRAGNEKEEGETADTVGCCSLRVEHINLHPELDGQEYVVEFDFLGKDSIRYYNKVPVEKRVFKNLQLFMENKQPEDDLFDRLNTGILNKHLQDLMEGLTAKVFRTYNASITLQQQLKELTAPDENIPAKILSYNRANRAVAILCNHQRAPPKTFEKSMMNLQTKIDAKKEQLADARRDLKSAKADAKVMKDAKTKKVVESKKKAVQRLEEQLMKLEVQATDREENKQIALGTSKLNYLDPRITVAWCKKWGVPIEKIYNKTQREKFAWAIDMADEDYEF

>  <compound>
CC[C@@]1(O)C(=O)OCc2c1cc1n(c2=O)Cc2c-1nc1cc(F)c(C)c3c1c2[C@@H](NC(=O)c1cccc(N)c1)CC3 [Example U-004]

>  <IC50>
≤ 15 µM

$$$$
>  <compound>
CC[C@@]1(O)C(=O)OCc2c1cc1n(c2=O)Cc2c-1nc1cc(F)c(C)c3c1c2[C@@H](NC(=O)Cc1cccc(N)c1)CC3 [Example U-006]

>  <IC50>
≤ 15 µM

$$$$
>  <compound>
CC[C@@]1(O)C(=O)OCc2c1cc1n(c2=O)Cc2c-1nc1cc(F)c(C)c3c1c2[C@@H](NC(=O)CCO)CC3 [Example U-002]

>  <IC50>
≤ 15 µM

$$$$
